Exercise: for every item that follows, state its recorded concentration at 0.5 h.
# Experiment Notes: Plasma pharmacokinetics after single oral dose of Δ8-THCV in MCT oil (LC-MS/MS, non-compartmental analysis)
# Assay type: in vivo, human
# Run Conditions: human, plasma, oral, 100 mg, 0.5 h; 100 mg Δ8-THCV dose; Mean (SD, %CV)
Use ng/mL as the unit, but write only the number.

*Q* # query: concentration at 0.5 h of entry CCCc1cc(O)c2c(c1)OC(C)(C)[C@@H]1CCC(C)=C[C@@H]21 [Δ9-THCV, Δ9-tetrahydrocannabivarin]
*A* 0

*Q* Recorded concentration at 0.5 h for CCCc1cc(O)c2c(c1)OC(C)(C)[C@@H]1CC=C(C)C[C@@H]21 [Δ8-THCV, Δ8-tetrahydrocannabivarin] , please?
*A* 0.2

*Q* May I ask what concentration at 0.5 h has been recorded for CCCc1cc(O)c2c(c1)OC(C)(C)[C@@H]1CCC(C(=O)O)=C[C@@H]21 [Δ9-THCV-COOH, 11-nor-9-carboxy-Δ9-THCV] ?
*A* 0.3
